The origin of these recorded values is paper PMC10821124.

# Test system: human oral squamous cell carcinoma HSC-4 cells
# Assay Explanation: Cytotoxicity, MTT method, HSC-4 cells
# Assay type: cell-based
# Test Settings: Homo sapiens, HSC-4; 48 h, MTT, mean ± SD; read-out: CC50 HSC-4
Documented CC50 across a set of compounds

{"Smiles Str": "Cc1ccc(/C=C2\\CN(C(=O)C(=O)N3C/C(=C\\c4ccc(C)cc4)C(=O)/C(=C/c4ccc(C)cc4)C3)C/C(=C\\c3ccc(C)cc3)C2=O)cc1", "CC50 / nM": 2300}
{"Smiles Str": "O=C1/C(=C/c2ccc(Cl)cc2)CN(C(=O)CC(=O)N2C/C(=C\\c3ccc(Cl)cc3)C(=O)/C(=C/c3ccc(Cl)cc3)C2)C/C1=C\\c1ccc(Cl)cc1", "CC50 / nM": 5500}
{"Smiles Str": "COc1ccc(/C=C2\\CN(C(=O)CC(=O)N3C/C(=C\\c4ccc(OC)c(OC)c4)C(=O)/C(=C/c4ccc(OC)c(OC)c4)C3)C/C(=C\\c3ccc(OC)c(OC)c3)C2=O)cc1OC", "CC50 / nM": 128}
{"Smiles Str": "O=C1/C(=C/c2ccc(F)cc2)CN(C(=O)C(=O)N2C/C(=C\\c3ccc(F)cc3)C(=O)/C(=C/c3ccc(F)cc3)C2)C/C1=C\\c1ccc(F)cc1", "CC50 / nM": 33}
{"Smiles Str": "COc1cc(/C=C2\\CN(C(=O)C(=O)N3C/C(=C\\c4cc(OC)c(OC)c(OC)c4)C(=O)/C(=C/c4cc(OC)c(OC)c(OC)c4)C3)C/C(=C\\c3cc(OC)c(OC)c(OC)c3)C2=O)cc(OC)c1OC", "CC50 / nM": 88}

----------
# Test system: human promyelocytic leukemia HL-60 cells
# Assay Explanation: Cytotoxicity, MTT method, HL-60 cells
# Type: cell-based
# Test Settings: average CC50 non-malignant cells / CC50 HL-60

{"Compound": "Cc1ccc(/C=C2\\CN(C(=O)CC(=O)N3C/C(=C\\c4ccc(C)cc4)C(=O)/C(=C/c4ccc(C)cc4)C3)C/C(=C\\c3ccc(C)cc3)C2=O)cc1", "SI (selectivity index) HL-60": 17.6}
{"Compound": "N[C@@H](Cc1ccc(N(CCCl)CCCl)cc1)C(=O)O [Melphalan, reference compound]", "SI (selectivity index) HL-60": 75.6}
{"Compound": "COc1ccc(/C=C2\\CN(C(=O)C(=O)N3C/C(=C\\c4ccc(OC)c(OC)c4)C(=O)/C(=C/c4ccc(OC)c(OC)c4)C3)C/C(=C\\c3ccc(OC)c(OC)c3)C2=O)cc1OC", "SI (selectivity index) HL-60": 65.8}

----------
# System: human oral squamous cell carcinoma HSC-4 cells
# Assay Explanation: Cytotoxicity, MTT method, HSC-4 cells
# Type: cell-based
# Test Settings: average CC50 non-malignant cells / CC50 HSC-4
Documented SI (selectivity index) HSC-4 across a set of compounds
Property Label: SI (selectivity index) HSC-4

{"Compound": "O=C1/C(=C/c2ccc(F)cc2)CN(C(=O)C(=O)N2C/C(=C\\c3ccc(F)cc3)C(=O)/C(=C/c3ccc(F)cc3)C2)C/C1=C\\c1ccc(F)cc1 [Compound 2b]", "Property Label": "SI (selectivity index) HSC-4", "Censor Symbol": "=", "Reported": 45.5}
{"Compound": "O=C1/C(=C/c2ccc(Cl)c(Cl)c2)CN(C(=O)CC(=O)N2C/C(=C\\c3ccc(Cl)c(Cl)c3)C(=O)/C(=C/c3ccc(Cl)c(Cl)c3)C2)C/C1=C\\c1ccc(Cl)c(Cl)c1 [Compound 3d]", "Property Label": "SI (selectivity index) HSC-4", "Censor Symbol": ">", "Reported": 1.27}
{"Compound": "O=C1/C(=C/c2ccc(Cl)cc2)CN(C(=O)C(=O)N2C/C(=C\\c3ccc(Cl)cc3)C(=O)/C(=C/c3ccc(Cl)cc3)C2)C/C1=C\\c1ccc(Cl)cc1 [Compound 2c]", "Property Label": "SI (selectivity index) HSC-4", "Censor Symbol": "=", "Reported": 11.1}
{"Compound": "N[C@@H](Cc1ccc(N(CCCl)CCCl)cc1)C(=O)O [Melphalan, reference compound]", "Property Label": "SI (selectivity index) HSC-4", "Censor Symbol": "=", "Reported": 1.46}
{"Compound": "COc1ccc(/C=C2\\CN(C(=O)C(=O)N3C/C(=C\\c4ccc(OC)cc4)C(=O)/C(=C/c4ccc(OC)cc4)C3)C/C(=C\\c3ccc(OC)cc3)C2=O)cc1 [Compound 2h]", "Property Label": "SI (selectivity index) HSC-4", "Censor Symbol": ">", "Reported": 8.51}
{"Compound": "O=C1/C(=C/c2ccc(F)cc2)CN(C(=O)CC(=O)N2C/C(=C\\c3ccc(F)cc3)C(=O)/C(=C/c3ccc(F)cc3)C2)C/C1=C\\c1ccc(F)cc1 [Compound 3b]", "Property Label": "SI (selectivity index) HSC-4", "Censor Symbol": "=", "Reported": 184}
{"Compound": "Cc1ccc(/C=C2\\CN(C(=O)CC(=O)N3C/C(=C\\c4ccc(C)cc4)C(=O)/C(=C/c4ccc(C)cc4)C3)C/C(=C\\c3ccc(C)cc3)C2=O)cc1 [Compound 3e]", "Property Label": "SI (selectivity index) HSC-4", "Censor Symbol": "=", "Reported": 13.0}
{"Compound": "COc1ccc(/C=C2\\CN(C(=O)C(=O)N3C/C(=C\\c4ccc(OC)c(OC)c4)C(=O)/C(=C/c4ccc(OC)c(OC)c4)C3)C/C(=C\\c3ccc(OC)c(OC)c3)C2=O)cc1OC [Compound 2f]", "Property Label": "SI (selectivity index) HSC-4", "Censor Symbol": "=", "Reported": 78.1}
{"Compound": "O=C1/C(=C/c2ccc(Cl)c(Cl)c2)CN(C(=O)C(=O)N2C/C(=C\\c3ccc(Cl)c(Cl)c3)C(=O)/C(=C/c3ccc(Cl)c(Cl)c3)C2)C/C1=C\\c1ccc(Cl)c(Cl)c1 [Compound 2d]", "Property Label": "SI (selectivity index) HSC-4", "Censor Symbol": "=", "Reported": 5.36}
{"Compound": "COc1ccc(/C=C2\\CN(C(=O)CC(=O)N3C/C(=C\\c4ccc(OC)c(OC)c4)C(=O)/C(=C/c4ccc(OC)c(OC)c4)C3)C/C(=C\\c3ccc(OC)c(OC)c3)C2=O)cc1OC [Compound 3f]", "Property Label": "SI (selectivity index) HSC-4", "Censor Symbol": "=", "Reported": 11.7}
{"Compound": "O=C1/C(=C/c2ccc(Cl)cc2)CN(C(=O)CC(=O)N2C/C(=C\\c3ccc(Cl)cc3)C(=O)/C(=C/c3ccc(Cl)cc3)C2)C/C1=C\\c1ccc(Cl)cc1 [Compound 3c]", "Property Label": "SI (selectivity index) HSC-4", "Censor Symbol": "=", "Reported": 7.51}
{"Compound": "COc1cc(/C=C2\\CN(C(=O)CC(=O)N3C/C(=C\\c4cc(OC)c(OC)c(OC)c4)C(=O)/C(=C/c4cc(OC)c(OC)c(OC)c4)C3)C/C(=C\\c3cc(OC)c(OC)c(OC)c3)C2=O)cc(OC)c1OC [Compound 3g]", "Property Label": "SI (selectivity index) HSC-4", "Censor Symbol": "=", "Reported": 5.00}
{"Compound": "Cc1ccc(/C=C2\\CN(C(=O)C(=O)N3C/C(=C\\c4ccc(C)cc4)C(=O)/C(=C/c4ccc(C)cc4)C3)C/C(=C\\c3ccc(C)cc3)C2=O)cc1 [Compound 2e]", "Property Label": "SI (selectivity index) HSC-4", "Censor Symbol": "=", "Reported": 19.6}
{"Compound": "O=C1/C(=C/c2ccccc2)CN(C(=O)CC(=O)N2C/C(=C\\c3ccccc3)C(=O)/C(=C/c3ccccc3)C2)C/C1=C\\c1ccccc1 [Compound 3a]", "Property Label": "SI (selectivity index) HSC-4", "Censor Symbol": "=", "Reported": 11.0}
{"Compound": "COc1cc(/C=C2\\CN(C(=O)C(=O)N3C/C(=C\\c4cc(OC)c(OC)c(OC)c4)C(=O)/C(=C/c4cc(OC)c(OC)c(OC)c4)C3)C/C(=C\\c3cc(OC)c(OC)c(OC)c3)C2=O)cc(OC)c1OC [Compound 2g]", "Property Label": "SI (selectivity index) HSC-4", "Censor Symbol": "=", "Reported": 6.48}
{"Compound": "O=C1/C(=C/c2ccccc2)CN(C(=O)C(=O)N2C/C(=C\\c3ccccc3)C(=O)/C(=C/c3ccccc3)C2)C/C1=C\\c1ccccc1 [Compound 2a]", "Property Label": "SI (selectivity index) HSC-4", "Censor Symbol": "=", "Reported": 16.3}
{"Compound": "COc1cc(/C=C/C(=O)CC(=O)/C=C/c2ccc(O)c(OC)c2)ccc1O [Curcumin, reference compound]", "Property Label": "SI (selectivity index) HSC-4", "Censor Symbol": "=", "Reported": 3.24}
{"Compound": "O=C1/C(=C/c2ccccc2)CN(CCCN2C/C(=C\\c3ccccc3)C(=O)/C(=C/c3ccccc3)C2)C/C1=C\\c1ccccc1 [Compound 4]", "Property Label": "SI (selectivity index) HSC-4", "Censor Symbol": "=", "Reported": 48.2}
